Here the recorded DBIL is given for each entry.
# Species: Rattus norvegicus
# test.name: Open TG-GATES - Regimen: Daily Repeat
# Type: toxicity, organism-based, Sprague-Dawley
# Design: regimen Daily Repeat, gender Male, age 6 weeks
# settings: in vivo, po, 100 mg/kg, 72 h, tissue Plasma, route gavage, dose level Low, time 3 day
value.type: DBIL

>>> result("CN/C(=N/CCSCc1nc[nH]c1C)NC#N")
"0.1 mg/dL"
>>> result("Cc1nnc2n1-c1ccc(Cl)cc1C(c1ccccc1Cl)=NC2")
"0.012 mg/dL"
>>> result("CCOc1ccc(NC(C)=O)cc1")
"0.006 mg/dL"
>>> result("O=C(OC[C@H]1O[C@@H](OC(=O)c2cc(O)c(O)c(OC(=O)c3cc(O)c(O)c(O)c3)c2)[C@H](OC(=O)c2cc(O)c(O)c(OC(=O)c3cc(O)c(O)c(O)c3)c2)[C@@H](OC(=O)c2cc(O)c(O)c(OC(=O)c3cc(O)c(O)c(O)c3)c2)[C@@H]1OC(=O)c1cc(O)c(O)c(OC(=O)c2cc(O)c(O)c(O)c2)c1)c1cc(O)c(O)c(OC(=O)c2cc(O)c(O)c(O)c2)c1")
"0 mg/dL"
>>> result("COC(=O)C1=C(C)NC(C)=C(C(=O)OC)C1c1ccccc1[N+](=O)[O-]")
"0.014 mg/dL"
>>> result("CNC(=C[N+](=O)[O-])NCCSCc1ccc(CN(C)C)o1")
"0.086 mg/dL"

Hey, just so you know, these numbers are from ChEMBL document CHEMBL3885861.
